Reported inhibition (INH) values are given for each entry in this list.
Tested on: Solanum lycopersicum
Test: Inhibition of root length of Solanum lycopersicum cv. Tres Cantos (tomato) at 0.1 mM or 1 mM after 5 days relative to untreated control
Type: functional
quantity_kind: inhibition (INH)

| molecule | quantity_kind | recorded_measurement |
| --- | --- | --- |
| C=C1CC[C@H]2C(=C)CC[C@@H]3[C@H](OC(=O)[C@H]3CO)[C@@H]12 | inhibition (INH) | >40% |
| COc1nc(C)nc(NC(=O)NS(=O)(=O)c2ccccc2OCCCl)n1 | inhibition (INH) | >40% |
| C=C1[C@@H]2[C@H]3OC(=O)C(=C)[C@@H]3CCC(=C)[C@@H]2C[C@@H]1O | inhibition (INH) | <20% |
| C=C1C(=O)C[C@H]2C(=C)CC[C@H]3C(=C)C(=O)O[C@@H]3[C@@H]12 [DEHYDROZALUZANIN C] | inhibition (INH) | >40% |
